Where do these numbers come from? They come from paper PMC4335020.

measurement.protocol: Single oral dose human plasma pharmacokinetics of D, DA and DOH after Cogni.Q
Type: in vivo
applied.conditions: human, plasma, oral, 4 Cogni.Q vegicaps, subject S10 (185 lb); read-out: AUC0-48h
Listed here are compounds together with their documented AUC(0-t).
property: AUC(0-t) (µM·h)

compound="C/C=C(/C)C(=O)O[C@H]1Cc2cc3ccc(=O)oc3cc2OC1(C)C [DA, decursinol angelate]" property=AUC(0-t) unit_string=µM·h numeric_value=0.115
compound=CC1(C)Oc2cc3oc(=O)ccc3cc2C[C@@H]1O property=AUC(0-t) unit_string=µM·h numeric_value=17.4
compound=CC(C)=CC(=O)O[C@H]1Cc2cc3ccc(=O)oc3cc2OC1(C)C property=AUC(0-t) unit_string=µM·h numeric_value=0.0466
